Please provide measured composite z-score for the entries that follow.
System: Lefty1
Assay: Lefty1 binders on small-molecule microarrays, primary screen, biochemical, small-molecule microarray, 635/667 nm fluorescence (AID 1139)
Details: small-molecule microarray binding, fluorescence 635/667; higher = more signal

Some entries whose results are on file:
COMPOUND | SYSTEM NAME | PROPERTY NAME | REPORTED
CN(C)CCCN1C(=O)[C@@]2(c3ccc([N+](=O)[O-])cc3)CC(=O)N(CC34CC5CC(CC(C5)C3)C4)[C@@H]2c2ccc(CO)cc21 | Lefty1 | composite z-score | 0.13
O=C(CS)NCCCCCCNC(=O)[C@H]1C[C@H]2C(=O)N[C@@H](Cc3ccccc3)C(=O)N2[C@H]1c1cccc(OCCO)c1 | Lefty1 | composite z-score | 1.14
COCCOC(=O)N1C(=O)[C@@]2(c3cc(C#CC4(O)CCCCCC4)ccc31)[C@H](C(N)=O)[C@H]1C(=O)O[C@H](c3ccccc3)[C@H](c3ccccc3)N1[C@@H]2c1ccccc1OCCO | Lefty1 | composite z-score | 0.569
COCCOC(=O)N1C(=O)[C@@]2(c3cc(C#CCNC(N)=O)ccc31)[C@H](C(=O)N1CCCCCCC1)[C@H]1C(=O)O[C@H](c3ccccc3)[C@H](c3ccccc3)N1[C@@H]2c1ccc(O)cc1 | Lefty1 | composite z-score | 0.742
CC(C)OC(=O)CC(=O)CC(O)c1cccc(C#N)c1 (centres undefined) | Lefty1 | composite z-score | -0.0714

Give one value of composite z-score per listed compound.
1. CN(C)CCCNC(=O)[C@@]1(c2ccc([N+](=O)[O-])cc2)CC(=O)N(CC23CC4CC(CC(C4)C2)C3)[C@@H]1c1ccc(CO)cc1
2. COC(=O)[C@@]1(Cc2ccccc2)[C@H]2c3cc(C(=O)N4CCCC4)n(Cc4cc(F)cc5c4OCOC5)c3C[C@H]2CN1C(=O)c1ccccc1
3. CC(C)C(=C=CC[C@@H](O)c1ccccc1OCCO)C[C@@H](O)COCc1ccccc1
4. [N-]=[N+]=Nc1ccccc1[C@@H]1OC(c2ccc(OCCCO)cc2)=N[C@]1(CCS(=O)(=O)c1ccccc1)C(=O)NCCN1CCOCC1
5. CN(C)CCCCNC(=O)[C@H]1C[C@H]2C(=O)N[C@@H](CCCCN(C)C)C(=O)N2[C@H]1c1cccc(OCCO)c1

Output:
[0.99, -0.359, 0.435, 0.393, 1.64]

---

Molecular target: Torsin-1A-interacting protein 2 (Homo sapiens) (UniProt Q8NFQ8)
Sequence (Q8NFQ8 whole entry, looked up): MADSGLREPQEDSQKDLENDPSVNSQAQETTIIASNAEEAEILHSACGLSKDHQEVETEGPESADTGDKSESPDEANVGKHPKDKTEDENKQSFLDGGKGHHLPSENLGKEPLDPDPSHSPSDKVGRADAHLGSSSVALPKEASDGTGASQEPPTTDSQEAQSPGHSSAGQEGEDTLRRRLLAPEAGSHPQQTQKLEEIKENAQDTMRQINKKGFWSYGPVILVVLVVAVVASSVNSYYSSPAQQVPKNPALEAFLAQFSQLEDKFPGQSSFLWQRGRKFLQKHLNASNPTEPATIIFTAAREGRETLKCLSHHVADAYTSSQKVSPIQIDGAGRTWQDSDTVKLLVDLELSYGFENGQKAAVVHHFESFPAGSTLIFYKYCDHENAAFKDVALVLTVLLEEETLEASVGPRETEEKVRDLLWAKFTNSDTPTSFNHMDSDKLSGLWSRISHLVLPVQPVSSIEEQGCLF
Experiment: LULL1 binders on small-molecule microarray, primary screen, cell lysate, human LULL1 lysate, 635/667 nm fluorescence (AID 1092);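 further: probe is lysate of COS7 cells overexpressing human LULL1; score merges per-feature 667 nm fluorescence with signal-to-noise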
Conditions: hLULL1 lysate binding, 635 nm fluorescence, higher = more signal
PROPERTY NAME: composite z-score
Numbers only.

Some entries whose results are on file:
MOLECULE | PROPERTY NAME | REPORTED
NC(=O)N1C(=O)C2C(C1=O)C1C=C(c3ccc(CO)cc3)C2C(C2CC2)N1Cc1sc2ccccc2c1Cl (stereo unspecified) | composite z-score | 2.68
COCCOC(=O)N1C(=O)[C@@]2(c3cc(C#CCNC(N)=O)ccc31)[C@H](C(=O)N1CCCCCCC1)[C@H]1C(=O)O[C@H](c3ccccc3)[C@H](c3ccccc3)N1[C@@H]2c1ccc(O)cc1 | composite z-score | 1.66
O=C(O)[C@]1(Cc2ccccc2)N=C(c2ccc(OCCCO)cc2)O[C@@H]1c1ccccc1 | composite z-score | 1.55
C=CCC(OC(C)=O)[C@@H]1[C@@H](N(Cc2cc3ccccc3o2)C(=O)Cc2ccc(F)cc2)c2cc(OCCCO)ccc2N1C(=O)c1ccc2ccccc2n1 (stereo partly specified) | composite z-score | -0.136
C=C(/C(=C/C[C@@H](OC(=O)c1ccncc1)c1ccccc1OCCO)c1cc(C(=O)OC)ccc1OC)C(C)C | composite z-score | 3.07

Then there is this molecule:
Task: Given the entry COCCOC(=O)N1C(=O)[C@@]2(c3cc(C#CC4(O)CCCCCC4)ccc31)[C@H](C(N)=O)[C@H]1C(=O)O[C@H](c3ccccc3)[C@H](c3ccccc3)N1[C@@H]2c1ccc(O)cc1 , what composite z-score was observed with Torsin-1A-interacting protein 2 (Homo sapiens) (UniProt Q8NFQ8)?
Output: 2.41

---

Test: small-molecule microarray binders of probe aDKK1, primary screen, biochemical, biotinylated probe, 635/667 nm fluorescence (AID 1099);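 further: score merges 667nm spot fluorescence with signal to noise across triplicate slides; reference of the scale not given here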
Settings: higher = more signal
The threshold is inclusive: composite z-score of exactly 0.1 counts as 1.0; values below receive 0.0.

# example entries with known answers
COMPOUND | CATEGORY LABEL
C=CCOC(=O)[C@@H]1[C@H]2C(=O)O[C@H](c3ccccc3)[C@H](c3ccccc3)N2[C@H](c2ccc(OCCOC(=O)[C@H]3C[C@H]4C(=O)N[C@@H](CCCCN(C)C)C(=O)N4[C@H]3c3cccc(OCCO)c3)cc2)[C@@]12C(=O)Nc1ccc(I)cc12 | 0.0
COc1ccc(C(O)C2C=CC3C(=O)N(Cc4ccccc4)C(=O)C3N2n2cnnc2)c2ccccc12 (stereo unspecified) | 0.0
O=C1O[C@@H](c2ccccc2)[C@@H](c2ccccc2)N2[C@@H](c3ccc(O)cc3)[C@]3(C(=O)Nc4ccc(C#CCCO)cc43)[C@@H](C(=O)Nc3nc4ccccc4s3)[C@H]12 | 0.0
O=C1NC(=O)C2C1C=CC(C(O)c1cc(C(F)(F)F)cc(C(F)(F)F)c1)N2Nc1ccc(Cl)cc1Cl (stereo unspecified) | 1.0
NCCCCCNC(=O)[C@@H]1C[C@@H]2C(=O)N[C@@H](CCCCN)C(=O)N2[C@@H]1c1cccc(OCCO)c1 | 1.0

Task: Item COc1ccc(C(O)C2C=CC3C(=O)N(c4ccccc4)C(=O)C3N2Nc2ccc(C#N)cc2)c2ccccc12 (stereo unspecified) with composite z-score of 0.1 or above?
Output: 1.0

---

Test system: Wnt5a (protein binding on small-molecule microarray)
Test: Wnt5a binders on small-molecule microarray, primary screen, biophysical, 635/667 nm fluorescence (AID 1142);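 further: fluorescence read at 667 nm with signal to noise per printed feature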
Settings: 635 nm fluorescence, higher = more signal
PROPERTY NAME: composite z-score
Numbers only.

Some entries whose results are on file:
COMPOUND | REPORTED
CC(C)(C)OC(=O)CC[C@@]1(C(=O)O)N=C(c2ccc(OCCCO)cc2)O[C@@H]1c1ccccc1 | -0.181
C=CC[C@]12N=C(c3ccc(OCCCO)cc3)O[C@H]1c1ccccc1N(C)C2=O | 0.305
COc1ccc([Si](C)(C)[C@@H]2[C@@H](CC(=O)N3CCC[C@H]3CO)O[C@]3(C(=O)N(Cc4ccc(N5C(=O)c6cccc7cccc5c67)cc4)c4ccccc43)[C@H]2C)cc1 | 0.761
CCOC(=O)[C@@H]1[C@@H]2C(=O)N(CC)C(=O)[C@@H]2C[C@@H]1Sc1ccccc1 | 0.202
COCCOC(=O)N1C(=O)[C@@]2(c3cc(C#CC4(O)CCCCCC4)ccc31)[C@H](c1ccccc1OCCO)N1[C@H](c3ccccc3)[C@H](c3ccccc3)OC(=O)[C@H]1[C@@H]2C(N)=O | 0.448
COc1ccc(C(O)C2C=CC3C(=O)N(c4ccccc4)C(=O)C3N2Nc2ccc(C#N)cc2)c2ccccc12 (configuration not stated) | 0.0756

Give one value of composite z-score per listed compound.
1. CC(CO)N1C(=O)[C@@H]2C3C(=O)OCCC/C=C\[C@H]3OC23C=CCN(Cn2nnc4ccccc42)C(=O)[C@@H]13 (some centres not stated)
2. CCOC(=O)C1=CC[C@@H](c2ccccc2)N(S(=O)(=O)c2ccc(C)cc2)C1
3. CO[C@H]1O[C@H](CO)[C@@H](OC(=O)Nc2ccc(C(F)(F)F)cc2)[C@H](OC(=O)Nc2ccc3c(c2)OCO3)[C@H]1OC(=O)Nc1ccc2c(c1)OCO2
4. CO[C@H]1O[C@H](CO)[C@@H](OC(=O)c2ccc(Br)cc2)[C@@H]2OC(=O)[C@@H](Cc3ccc4ccccc4c3)C/C=C/C[C@H](Cc3ccc4ccccc4c3)C(=O)O[C@@H]12
5. [N-]=[N+]=NCc1ccccc1C[C@@]1(C(=O)N2CCCCC2)N=C(c2ccc(OCCCO)cc2)O[C@@H]1c1ccccc1N=[N+]=[N-]
6. O=C1O[C@@H](c2ccccc2)[C@@H](c2ccccc2)N2[C@@H](c3ccccc3OCCO)[C@]3(C(=O)Nc4ccc(C#CCCO)cc43)[C@@H](C(=O)N3CCN(c4ncccn4)CC3)[C@H]12
7. O=C(O)[C@]1(Cc2ccccc2)N=C(c2ccc(OCCCO)cc2)O[C@@H]1c1ccccc1
8. C[C@]1(C(=O)NC2CC2)c2ccccc2C(=O)N(Cc2ccc(OC(F)(F)F)cc2)[C@H]1c1ccc(CO)cc1

Output:
-0.275
0.0639
0.259
0.18
-0.269
0.174
-0.159
-0.0135

Give one value of composite z-score per listed compound.
1. CC(C)(C)OC(=O)CC[C@]1(C(=O)N2CCOCC2)N=C(c2ccc(OCCCO)cc2)O[C@H]1c1ccccc1
2. COCCOC(=O)N1C(=O)[C@@]2(c3cc(C#CC4=CCCCC4)ccc31)[C@H](C(=O)N1CCN(c3ncccn3)CC1)[C@H]1C(=O)O[C@H](c3ccccc3)[C@H](c3ccccc3)N1[C@@H]2c1ccc(O)cc1
3. C=C(C(=O)CC[C@H](OC(=O)c1cccnc1)c1ccc(CO)o1)C(C)C
4. COC(=O)C(CC#Cc1ccc2c(c1)[C@]1(C(=O)N2)[C@H](C(=O)O)[C@H]2C(=O)O[C@H](c3ccccc3)[C@H](c3ccccc3)N2[C@@H]1c1ccccc1OCCO)C(=O)OC
5. O=C1O[C@H](c2ccccc2)[C@H](c2ccccc2)N2[C@H]1[C@@H](C(=O)O)[C@]1(C(=O)Nc3ccccc31)[C@H]2c1ccc(O)cc1
6. C=CC[C@@]1(C(=O)N2CCCCC2)N=C(c2ccc(OCCCO)cc2)O[C@@H]1c1ccccc1
7. C=CCC(OC(C)=O)[C@@H]1[C@@H](N(Cc2cc3ccccc3o2)C(=O)c2ccc(C)cc2)c2cc(OCCCO)ccc2N1C(=O)Cc1ccc2ccccc2c1 (some centres not stated)

Output:
1. 0.959
2. 0.282
3. 0.159
4. 0.193
5. 0.251
6. 0.18
7. -0.109

Give one value of composite z-score per listed compound.
1. O=c1cccc(-c2ccc(C(F)(F)F)cc2)o1
2. CN(C)CCCCNC(=O)[C@H]1C[C@H]2C(=O)N[C@@H](CCCCN(C)C)C(=O)N2[C@H]1c1cccc(OCCO)c1
3. C=CCOC(=O)[C@@H]1[C@H]2C(=O)O[C@H](c3ccccc3)[C@H](c3ccccc3)N2[C@H](c2ccc(OCCOC(=O)[C@H]3C[C@H]4C(=O)N[C@@H](CCCC[N+](C)(C)C)C(=O)N4[C@H]3c3ccc(O)cc3)cc2)[C@@]12C(=O)Nc1ccc(I)cc12
4. CC(C)CN1C(=O)[C@@]2(Cc3ccccc31)c1ccccc1C(=O)N(Cc1ccccc1C(F)(F)F)[C@H]2c1ccc(CO)cc1
5. C[C@H]1C2=C3C(CC[C@H]4C(OCc5ccc(F)cc5C(F)(F)F)OC[C@](C)([C@@H]34)N(C(=O)OC(C)(C)C)C2)C(CO)C1CO (some centres not stated)
6. COc1ccccc1CN1C(=O)c2ccccc2[C@@H](C(=O)NC(C)C)[C@@H]1c1ccc(CO)cc1

Output:
1. -0.281
2. 0.83
3. 0.568
4. -0.331
5. 0.24
6. 0.428
